# Tested on: Bxpc-3
# protocol summary: In vitro activity test, inhibition of target cell proliferation (MTS)
# Type: cell-based
# condition parameters: Homo sapiens, BXPC-3, 96 h, read-out: IC50 for the inhibition of target cell proliferation in vitro, Bxpc-3
# Experimental: • Cells: A431, SW620, BXPC3, Fadu from the Cell Bank of the Chinese Academy of • Sciences Cell • Culture medium DMEM: Gibco • FBS: BIOWEST […] Turn on the UV light of the biological safety cabinet 30 minutes in advance, and then turn on the ventilation for 3 minutes. […] Aspirate the centrifugation supernatant, mix with 4 mL of detection medium, and count 100 uL (50 uL of cell fluid is taken out, 50 μL of Trypan Blue Stain is added and mixed, and counted after mixing). […]
attribute measured: pIC50
Please treat pIC50 as minus the base-10 logarithm of the molar concentration.

API: value(readout= pIC50, system= Bxpc-3, query= `CC[C@@]1(O)C(=O)OCc2c1cc1n(c2=O)Cc2c-1nc1cc(F)c(C)c3c1c2[C@@H](N(C)C(=O)C1(O)CC1)CC3` )
6.82
